target: immunoproteasome LMP7/B5i subunit (Homo sapiens, UniProt P20618+P28062); assay: Caliper-based proteasome enzymatic activity assay, LMP7; settings: human recombinant immunoproteasome 0.3 nM, FAM-peptide substrate 1 μM, 3 h at rt
pIC50: −log10 of the molar value.
TEST READOUT: pIC50

[
  {
    "MOLECULE": "CC(C)(C=C(C#N)C(=O)N1CCCC[C@@H]1COC(=O)N[C@@H](Cc1ccccc1)B(O)O)N1CCC(F)(F)C1 [Example 28]",
    "pIC50": 8.82
  }
]

[a] CC(C)(C=C(C#N)C(=O)N1C[C@@H]2C[C@@H]2[C@@H]1COC(=O)N[C@@H](Cc1coc2ccccc12)B(O)O)N1CCC(F)(F)C1 [Example 54]
[b] CC(C)(C=C(C#N)C(=O)N1CCC[C@]1(C)COC(=O)N[C@@H](Cc1ccc(F)cc1)B(O)O)N1CCC(F)(F)C1 [Example 120]
Challenge: Just curious, which one has the larger pIC50 reading, a or b ? # reply format: chosen label
Response given: a

----------
target: immunoproteasome LPM2/β1i subunit (Homo sapiens, UniProt P28065+P40306); assay: Caliper-based proteasome enzymatic activity assay, LMP2; details: human recombinant immunoproteasome 0.3 nM, FAM-peptide substrate 1 μM, 2 h at rt
pIC50: −log10 of the molar value.
Quick list: pIC50 per entry.

[
  {
    "COMPOUND": "CC(C)(C)/C=C(\\C#N)C(=O)N1C[C@H](F)C[C@@H]1COC(=O)N[C@@H](Cc1ccccc1)B(O)O",
    "TGT": "immunoproteasome LPM2/β1i subunit (Homo sapiens, UniProt P28065+P40306)",
    "pIC50": 5.35
  },
  {
    "COMPOUND": "CC(C)(C=C(C#N)C(=O)N1CCCC[C@@H]1COC(=O)N[C@@H](Cc1ccccc1)B(O)O)N1CCCC1",
    "TGT": "immunoproteasome LPM2/β1i subunit (Homo sapiens, UniProt P28065+P40306)",
    "pIC50": "< 5.30"
  },
  {
    "COMPOUND": "CC(C)(C)C=C(C#N)C(=O)N1CCC[C@@H]1COC(=O)N[C@@H](Cc1coc2ccccc12)B(O)O",
    "TGT": "immunoproteasome LPM2/β1i subunit (Homo sapiens, UniProt P28065+P40306)",
    "pIC50": "< 5.30"
  }
]

Now, please, on to the next compound.
Challenge: Query pIC50 for CC(C)C=C(C#N)C(=O)N1CCCC1CCC(=O)N[C@@H](Cc1ccccc1)B(O)O (single isomer, unassigned) [Example 3]
Response given: 5.46

----------
biological target: constitutive proteasome β5c unit (Homo sapiens, UniProt P20618+P28074); assay: Caliper-based proteasome enzymatic activity assay, β5c; format: biochemical; details: human recombinant constitutive proteasome 0.3 nM, FAM-peptide substrate 1 μM, 3 h at rt; read-out: β5c subunit IC50
TEST READOUT: IC50 (nM)

[
  {
    "SMILES STRING": "CC(C)(C)C=C(C#N)C(=O)N1C[C@@H]2C[C@@H]2[C@@H]1COC(=O)N[C@@H](Cc1ccccc1)B(O)O",
    "TGT": "constitutive proteasome β5c unit (Homo sapiens, UniProt P20618+P28074)",
    "TEST READOUT": "IC50",
    "VALUE": 2110
  }
]

[A] CC(C)(C=C(C#N)C(=O)N1CCCCC[C@H]1COC(=O)N[C@@H](Cc1coc2ccccc12)B(O)O)N1CCOCC1
[B] C=CC(=O)N1C[C@@H]2C[C@@H]2[C@@H]1COC(=O)N[C@@H](Cc1ccc(F)cc1)B(O)O
Challenge: Lab log: flag the item ( A or B ) with the smaller IC50 figure. # reply format: chosen label
Response given: A
(A: 645 nM, B: 3320 nM)

----------
molecular target: constitutive proteasome β5c unit (Homo sapiens, UniProt P20618+P28074); experiment: Caliper-based proteasome enzymatic activity assay, β5c; conditions: human recombinant constitutive proteasome 0.3 nM, FAM-peptide substrate 1 μM, 3 h at rt; read-out: β5c subunit IC50
TEST READOUT: IC50 (µM)

[
  {
    "SMILES STRING": "CC(C)(C=C(C#N)C(=O)N1CCOC[C@@H]1COC(=O)N[C@@H](Cc1ccccc1)B(O)O)N1CCC(F)(F)C1",
    "TGT": "constitutive proteasome β5c unit (Homo sapiens, UniProt P20618+P28074)",
    "IC50 [µM]": 1.76
  }
]

[P] Cc1ccc(C[C@H](NC(=O)OC[C@H]2CCCCCN2C(=O)C(C#N)=CC(C)(C)C)B(O)O)cc1
[Q] CC(C)(C=C(C#N)C(=O)N1CCC[C@@H]1COC(=O)N[C@@H](Cc1ccccc1)B(O)O)N1CCN(C2COC2)CC1
Challenge: Just curious, which one has the larger IC50 reading, P or Q ? # reply format: chosen label
Response given: Q

----------
biological target: immunoproteasome LMP7/B5i subunit (Homo sapiens, UniProt P20618+P28062); assay: Caliper-based proteasome enzymatic activity assay, LMP7; settings: human recombinant immunoproteasome 0.3 nM, FAM-peptide substrate 1 μM, 3 h at rt
TEST READOUT: IC50 (nM)

[P] CC(=O)N1CCN(C(C)(C)C=C(C#N)C(=O)N2CCC[C@@H]2COC(=O)N[C@@H](Cc2coc3ccccc23)B(O)O)CC1
[Q] Cc1ccc(C[C@H](NC(=O)OC[C@@H]2CCCCCN2C(=O)C(C#N)=CC(C)(C)N2CCC(F)(F)C2)B(O)O)cc1
Challenge: Just curious, which one has the larger IC50 reading, P or Q ? # reply format: chosen label
Response given: Q
(Q: 4.4 nM, P: 1.8 nM)

[a] C=C(F)C(=O)N1CCC[C@]1(C)COC(=O)N[C@@H](Cc1ccc(F)cc1)B(O)O
[b] CC(C)(C=C(C#N)C(=O)N1CCCC[C@@H]1COC(=O)N[C@@H](Cc1ccccc1C#N)B(O)O)N1CCC(F)(F)C1
Challenge: Just curious, which one has the larger IC50 reading, a or b ? # reply format: chosen label
Response given: b

[P] CC(C)(C=C(C#N)C(=O)N1CCC[C@@H]1COC(=O)N[C@@H](Cc1ccccc1)B(O)O)N1CCN(C2COC2)CC1
[Q] CC(C)(C=C(C#N)C(=O)N1CCC[C@@H]1COC(=O)N[C@@H](Cc1ccccc1)B(O)O)N1CCCC1
Challenge: Lab log: flag the item ( P or Q ) with the smaller IC50 figure. # reply format: chosen label
Response given: P

----------
biological target: constitutive proteasome β5c unit (Homo sapiens, UniProt P20618+P28074); assay: Caliper-based proteasome enzymatic activity assay, β5c; conditions: human recombinant constitutive proteasome 0.3 nM, FAM-peptide substrate 1 μM, 3 h at rt; read-out: β5c subunit IC50
TEST READOUT: IC50 (nM)

Example results:
[
  {
    "SMILES STRING": "CC(C)(C)/C=C(\\C#N)C(=O)N1C[C@H](F)C[C@@H]1COC(=O)N[C@@H](Cc1ccccc1)B(O)O",
    "IC50 [nM]": 1960
  },
  {
    "SMILES STRING": "Cc1ccc(C[C@H](NC(=O)OC[C@H]2CCCCCN2C(=O)C(C#N)=CC(C)(C)N2CCC(F)(F)C2)B(O)O)cc1",
    "IC50 [nM]": 445
  },
  {
    "SMILES STRING": "C=CC(=O)N1CCC[C@@H]1COC(=O)N[C@@H](Cc1coc2ccccc12)B(O)O",
    "IC50 [nM]": 397
  },
  {
    "SMILES STRING": "CC(C)(C=C(C#N)C(=O)N1CCCC[C@@H]1COC(=O)N[C@@H](Cc1coc2ccccc12)B(O)O)N1CCN(C2COC2)CC1",
    "IC50 [nM]": 232
  },
  {
    "SMILES STRING": "Cc1ccc(C[C@H](NC(=O)OC[C@H]2CCCN2C(=O)C(C#N)=CC(C)(C)C)B(O)O)cc1",
    "IC50 [nM]": 1540
  }
]

[A] CC(C)(C=C(C#N)C(=O)N1CCC[C@]1(C)COC(=O)N[C@@H](Cc1coc2ccccc12)B(O)O)N1CCOCC1
[B] C=CC(=O)N1C[C@@H]2C[C@@H]2[C@@H]1COC(=O)N[C@@H](Cc1ccc(C(F)(F)F)cc1)B(O)O
Challenge: Just curious, which one has the larger IC50 reading, A or B ? # reply format: chosen label
Response given: B

[P] CC(C)(C=C(C#N)C(=O)N1C[C@@H]2C[C@@H]2[C@@H]1COC(=O)N[C@@H](Cc1ccc(C(F)(F)F)cc1)B(O)O)N1CCOCC1
[Q] CC(C)(C=C(C#N)C(=O)N1CCC[C@]1(C)COC(=O)N[C@@H](Cc1coc2ccccc12)B(O)O)N1CCC(F)(F)C1
Challenge: Just curious, which one has the larger IC50 reading, P or Q ? # reply format: chosen label
Response given: P

[a] CC(C)C=C(C#N)C(=O)N1CCC[C@@H]1COCCC(=O)N[C@@H](Cc1ccccc1)B(O)O
[b] CC(C)(C=C(C#N)C(=O)N1C[C@@H]2C[C@@H]2[C@@H]1COC(=O)N[C@@H](Cc1ccc(F)cc1)B(O)O)N1CCC(F)(F)C1
Challenge: Just curious, which one has the larger IC50 reading, a or b ? # reply format: chosen label
Response given: a
